Task for the reader: assign each of the following compounds its reported growth inhibition.
# Assay Procedure: NCI Yeast Anticancer Drug Screen. Data for the rad50 strain (AID 155);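 also: 0% = growth of vehicle-only cultures of the same strain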
# Condition Context: S. cerevisiae rad50 strain growth inhibition; at 50.0 µM; stronger effect = higher value
About 79,000 compounds went through this panel and 15% of them were active in at least one assay; those are over-represented in the sample as a whole. The source made the active and inactive calls. Rule as the data show it: active = growth inhibition above about 70%; inactive = the rest. Where a SMILES comes first, the peptide text is derived from it. Bridges are numbered along the chain shown (N, C = ends).

Would you mind telling me what growth inhibition value was observed for Cc1cccc(Nc2c(C(=O)O)cnc3cc4c(cc23)OCO4)c1 ? -3.4% (inactive)

Would you mind telling me what growth inhibition value was observed for C=CCC(C)C(=O)NNC(=O)C(C)CC=C (stereo not given) ? -11.8% (inactive)

Would you mind telling me what growth inhibition value was observed for COc1ccc(COC(=O)Nc2ccc([N+](=O)[O-])cc2)cc1 ? -38.2% (inactive)

Would you mind telling me what growth inhibition value was observed for CC(=O)OC1CCC2(C)C(CCC3C2CCC2(C)C3CCC2C(C)(C)O)C1 (stereo not given) ? -2.2% (inactive)

Would you mind telling me what growth inhibition value was observed for C/C=C(/C)C(=O)O[C@H]1C(C)=C[C@]23C(=O)[C@@H](C=C(COC(C)=O)[C@@H](O)[C@]12O)[C@H]1[C@@H](C[C@H]3C)[C@@]1(C)OC(=O)/C(C)=C\C ? 58.7% (inactive)

Would you mind telling me what growth inhibition value was observed for Cc1ccc2nccc(C)c2c1 ? -27.8% (inactive)

Would you mind telling me what growth inhibition value was observed for Cc1n(C)nn[n+]1C ? 2.65% (inactive)

Would you mind telling me what growth inhibition value was observed for O=C(SCc1ccccc1)N(c1ccccc1)c1ccccc1 ? -0.55% (inactive)

Would you mind telling me what growth inhibition value was observed for COC(=O)C1CCC(=O)NCCCCC(NC(=O)C(N)CC(=O)O)C(=O)N1 (stereo not drawn) (H-Asp-Lys-Glu-OMe; lactam 2-3; configuration not given here) ? 5.4% (inactive)

Would you mind telling me what growth inhibition value was observed for Cc1cccc2c(CC(N)C(=O)O)c[nH]c12 (stereo not given) ? 3.25% (inactive)

----------
# Assay Procedure: NCI Yeast Anticancer Drug Screen. Data for the sgs1 mgt1 strain (AID 161);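 also: 0% = growth of cultures given vehicle only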
# Condition Context: S. cerevisiae sgs1 mgt1 strain, at 50.0 µM, stronger effect = higher value
This is part of a sample that, as a whole, favours compounds with a hit. Of some 79,000 tested, about 15% had one in any assay. Activity calls are given as the source filed them. Cut-off read from the data, not from the text of the source: active = growth inhibition above about 70%; inactive = the rest.
Task for the reader: assign each of the following compounds its reported growth inhibition.

Would you mind telling me what growth inhibition value was observed for O=C(Cl)c1cc2ccccc2c2c(=O)c3ccc4cc5ccccc5cc4c3[nH]c12 ? -10.4% (inactive)

Would you mind telling me what growth inhibition value was observed for CCN(CC)c1nc(N(CC)CC)nc(N(CC)CC)n1 ? 2.75% (inactive)

Would you mind telling me what growth inhibition value was observed for C=CCCCCCCCCCCCCCC ? -4% (inactive)

Would you mind telling me what growth inhibition value was observed for CC(C)(C)N(C/C=C/CN(Cc1ccccc1)Cc1ccccc1)C(C)(C)C ? 25.6% (inactive)

Would you mind telling me what growth inhibition value was observed for O=C(CCNC(=O)OCc1ccccc1)NC(Cc1ccccc1)C(=O)OCc1ccccc1 (configuration not stated) ? 4.55% (inactive)

Would you mind telling me what growth inhibition value was observed for Cc1cc(=O)oc2c(C)c(O)ccc12 ? -3.15% (inactive)

Would you mind telling me what growth inhibition value was observed for CCN(CC)CCCn1c(-c2ccccc2)ccc1-c1ccccc1 ? 8.1% (inactive)

Would you mind telling me what growth inhibition value was observed for CC(=O)N=C1CSc2ccccc2N1C ? -7.9% (inactive)

Would you mind telling me what growth inhibition value was observed for CCCCCC(=O)c1ccc2[nH]c3c(C)cc([N+](=O)[O-])c(C)c3c2c1 ? -34.6% (inactive)

Would you mind telling me what growth inhibition value was observed for CCOC(=O)/C=C/C(=O)NNS(=O)(=O)CCC(N)C(=O)O (configuration not stated) ? 0.5% (inactive)

Would you mind telling me what growth inhibition value was observed for Cn1c2ccccc2c2nn3cnnc3nc21 ? -3.3% (inactive)

Would you mind telling me what growth inhibition value was observed for CCCCCCCCOC(=O)Nc1cccc2ccccc12 ? -2.6% (inactive)
